Every entry's value here was drawn from PubChem BioAssay (NCI).

Test system: OVCAR-3 ovarian
Experiment: NCI tumour cell line growth inhibition, 48 h
Give measured TGI for each item. Keep answers brief.
Output spec: scalar in µM, unitless text.

What value of TGI has been reported for the following compound? CCOc1ccc2nc(NC(=O)c3c/c(=N\NC(=O)C[N+](C)(C)C)c4ccc(O)cc4o3)sc2c1
0.402

What value of TGI has been reported for the following compound? O=C(NN1C(=O)CSC12CCCCC2)c1[nH]c2ccc(F)cc2c1-c1ccccc1
32.9

What value of TGI has been reported for the following compound? COc1cc(/C=C2/CCS(=O)(=O)c3ccc(C)cc3C2=O)cc(OC)c1OC
20.1

What value of TGI has been reported for the following compound? CC(C)(C)c1n[nH]c(=S)n(/N=C/c2ccc(F)c(Oc3ccccc3)c2)c1=O
95.7

What value of TGI has been reported for the following compound? CN(C(=O)Cc1cc(Cl)c(Cl)cc1N=C=S)[C@H]1CCCC[C@@H]1N1CCCC1
29.6
